Molecular target: T1, DFNB31_2, Q9P202
T1 sequence (Q9P202 274-371, limits assumed, looked up): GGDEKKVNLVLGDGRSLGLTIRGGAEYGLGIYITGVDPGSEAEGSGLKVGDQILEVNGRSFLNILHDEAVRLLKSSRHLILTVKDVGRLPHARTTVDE
Test: holdup assay
Parameters: key: below the threshold = too weak to quantify, mostly under pKd 3.1 to 4
Settings: plain residues with an end cap or a label only (N-terminal biotin on a linker: ado-ado)
readout_kind: pKd

- binder: "QGLAERISVL [PRKD2, Q9BZL6]"
  pKd: "below the threshold"
- binder: "YNNCLEILRV [DCAF7, P61962]"
  pKd: "below the threshold"
- binder: "DDEDRLVIEI [ZNF831, Q5JPB2]"
  pKd: "below the threshold"
- binder: "GSGAVEMESV [AQP6, Q13520]"
  pKd: "below the threshold"
- binder: "RRLPGKETMA [GRIK2, Q13002]"
  pKd: "below the threshold"
- binder: "LPHPHSTTRV [NLGN2, Q8NFZ4]"
  pKd: "below the threshold"

Q: Param item = CLREWCDAFL [BANF1, O75531] ; retrieve measured pKd.
A: below the threshold

Q: Param item = QGPVETESVV [SLC45A4, Q5BKX6] ; retrieve measured pKd.
A: below the threshold
